- System: P-gp (MDR1)
- Run description: in vitro
- Condition set: dog, MDCK-MDR1, pH 7.4
Property: Papp B→A

>>> recorded_result("COc1cc([C@@H]2c3cc4c(cc3[C@@H](O[C@@H]3O[C@@H]5CO[C@@H](C)O[C@H]5[C@H](O)[C@H]3O)[C@H]3COC(=O)[C@H]23)OCO4)cc(OC)c1O [Etoposide]")
"4.05 ×10⁻⁶ cm/s"
>>> recorded_result("C[C@H]1O[C@@H](O[C@H]2[C@@H](O)C[C@H](O[C@H]3[C@@H](O)C[C@H](O[C@H]4CC[C@@]5(C)[C@H](CC[C@@H]6[C@@H]5C[C@@H](O)[C@]5(C)[C@@H](C7=CC(=O)OC7)CC[C@]65O)C4)O[C@@H]3C)O[C@@H]2C)C[C@H](O)[C@@H]1O [Digoxin]")
"17.8 ×10⁻⁶ cm/s"

* * *

- System: P-gp (MDR1)
- Run description: in vitro
- Condition set: dog, MDCK-MDR1, Papp, B⟶A
Property: Papp (×10⁻⁶ cm/s)

>>> recorded_result("COc1cc2c(c(OC)c1OC)-c1ccc(OC)c(=O)cc1[C@@H](NC(C)=O)CC2")
6.33

* * *

Some molecules, each annotated with its measured Papp.
- Test system: P-gp (MDR1)
- Run description: in vitro
- Condition set: dog, MDCK-MDR1, pH 7
Property: Papp (×10⁻⁶ cm/s)

>>> recorded_result("CCCC(=O)Nc1ccc(OCC(O)CNC(C)C)c(C(C)=O)c1 (stereo not drawn)")
0.18
>>> recorded_result("COc1cccc2c1C(=O)c1c(O)c3c(c(O)c1C2=O)C[C@@](O)(C(=O)CO)C[C@@H]3O[C@H]1C[C@H](N)[C@H](O)[C@H](C)O1")
0.13
>>> recorded_result("COc1cc2c(c(OC)c1OC)-c1ccc(OC)c(=O)cc1[C@@H](NC(C)=O)CC2")
0.16

* * *

Some molecules, each annotated with its measured Papp.
- Run description: Measurement of paracellular transport (Ppara) in MDCK-MDR1 cells with and without P-gp inhibitors
- Format: in vitro ADME, canine
- Condition set: dog, MDCK-MDR1, with elacridar 2 µM; + 2 µM elacridar, pH 5, three replicates (n = 3) (Table S13)
Property: Papp (×10⁻⁶ cm/s)

>>> recorded_result("CCCC(=O)Nc1ccc(OCC(O)CNC(C)C)c(C(C)=O)c1 (centres unmarked) [Acebutolol]")
0.6
>>> recorded_result("COc1cccc2c1C(=O)c1c(O)c3c(c(O)c1C2=O)C[C@@](O)(C(=O)CO)C[C@@H]3O[C@H]1C[C@H](N)[C@H](O)[C@H](C)O1 [Doxorubicin]")
0.4

* * *

Some compounds, each annotated with its measured recovery.
- Run description: in vitro
- Condition set: dog, MDCK-MDR1, pH 7.4
Property: recovery

>>> recorded_result("C[C@H]1O[C@@H](O[C@H]2[C@@H](O)C[C@H](O[C@H]3[C@@H](O)C[C@H](O[C@H]4CC[C@@]5(C)[C@H](CC[C@@H]6[C@@H]5C[C@@H](O)[C@]5(C)[C@@H](C7=CC(=O)OC7)CC[C@]65O)C4)O[C@@H]3C)O[C@@H]2C)C[C@H](O)[C@@H]1O [Digoxin]")
"73 to 83%"
>>> recorded_result("COc1cc([C@@H]2c3cc4c(cc3[C@@H](O[C@@H]3O[C@@H]5CO[C@@H](C)O[C@H]5[C@H](O)[C@H]3O)[C@H]3COC(=O)[C@H]23)OCO4)cc(OC)c1O [Etoposide]")
"98 to 108%"

* * *

- Tested on: P-gp (MDR1)
- Run description: Measurement of paracellular transport (Ppara) in MDCK-MDR1 cells with and without P-gp inhibitors
- Assay type: in vitro ADME, canine
- Condition set: dog, MDCK-MDR1; A → B, no inhibitor, pH 7.4, one replicate
Property: Papp (×10⁻⁶ cm/s)

>>> recorded_result("NS(=O)(=O)c1cc2c(cc1Cl)N=CNS2(=O)=O [Chlorothiazide]")
0.2

* * *

- Test system: MDCK-MDR1 cells
- Run description: Comparison of Papp,B-A with and without inhibitor in MDCK-MDR1 cells (own and literature data)
- Condition set: calculated from literature Papp,B⟶A and Papp with inhibitor; pH 7.4 iso-method
Decide by Factor difference: equal to or exceeding 4 means yes, less means no.

>>> label("C[C@H]1C[C@@H]2[C@H]([C@@H](O)C[C@@]3(C)[C@H]2CC[C@]3(O)C(=O)CO)[C@@]2(C)C=CC(=O)C=C12 [Methylprednisolone]")
"no"
>>> label("CCCC(=O)Nc1ccc(OCC(O)CNC(C)C)c(C(C)=O)c1 (stereo not shown) [Acebutolol]")
"yes"
>>> label("Cc1cn([C@H]2C[C@H](N=[N+]=[N-])[C@@H](CO)O2)c(=O)[nH]c1=O [Zidovudine]")
"no"
>>> label("CN(C)CCC(c1ccc(Br)cc1)c1ccccn1 (stereo not shown) [Brompheniramine]")
"no"
>>> label("CN(C)CCC(c1ccc(Cl)cc1)c1ccccn1 (stereo not shown) [Chlorpheniramine]")
"no"

* * *

- Run description: in vitro
- Condition set: dog, MDCK-MDR1, pH 7
Property: recovery

>>> recorded_result("CCCC(=O)Nc1ccc(OCC(O)CNC(C)C)c(C(C)=O)c1 (stereo not drawn)")
"88 to 102%"
>>> recorded_result("COc1cccc2c1C(=O)c1c(O)c3c(c(O)c1C2=O)C[C@@](O)(C(=O)CO)C[C@@H]3O[C@H]1C[C@H](N)[C@H](O)[C@H](C)O1")
"88 to 93%"
>>> recorded_result("COc1cc2c(c(OC)c1OC)-c1ccc(OC)c(=O)cc1[C@@H](NC(C)=O)CC2")
"98 to 110%"

* * *

- Test system: P-gp (MDR1)
- Run description: in vitro
- Condition set: dog, MDCK-MDR1, pH 9
Property: efflux ratio

>>> recorded_result("COc1cc([C@@H]2c3cc4c(cc3[C@@H](O[C@@H]3O[C@@H]5CO[C@@H](C)O[C@H]5[C@H](O)[C@H]3O)[C@H]3COC(=O)[C@H]23)OCO4)cc(OC)c1O [Etoposide]")
2.2

* * *

- Tested on: P-gp (MDR1)
- Run description: in vitro
- Condition set: dog, MDCK-MDR1, pH 5
Some compounds, each annotated with its measured Papp B→A.
Property: Papp B→A (×10⁻⁶ cm/s)

>>> recorded_result("COc1cc2c(c(OC)c1OC)-c1ccc(OC)c(=O)cc1[C@@H](NC(C)=O)CC2")
2.12
>>> recorded_result("CCCC(=O)Nc1ccc(OCC(O)CNC(C)C)c(C(C)=O)c1 (stereo not shown)")
0.28
>>> recorded_result("C[C@H]1O[C@@H](O[C@H]2[C@@H](O)C[C@H](O[C@H]3[C@@H](O)C[C@H](O[C@H]4CC[C@@]5(C)[C@H](CC[C@@H]6[C@@H]5C[C@@H](O)[C@]5(C)[C@@H](C7=CC(=O)OC7)CC[C@]65O)C4)O[C@@H]3C)O[C@@H]2C)C[C@H](O)[C@@H]1O")
6.12
>>> recorded_result("COc1cccc2c1C(=O)c1c(O)c3c(c(O)c1C2=O)C[C@@](O)(C(=O)CO)C[C@@H]3O[C@H]1C[C@H](N)[C@H](O)[C@H](C)O1")
0.46

* * *

- System: P-gp (MDR1)
- Run description: in vitro
- Condition set: dog, MDCK-MDR1, pH 6
Property: Papp (×10⁻⁶ cm/s)

>>> recorded_result("COc1cc2c(c(OC)c1OC)-c1ccc(OC)c(=O)cc1[C@@H](NC(C)=O)CC2 [Colchicine]")
0.2
>>> recorded_result("C[C@H]1O[C@@H](O[C@H]2[C@@H](O)C[C@H](O[C@H]3[C@@H](O)C[C@H](O[C@H]4CC[C@@]5(C)[C@H](CC[C@@H]6[C@@H]5C[C@@H](O)[C@]5(C)[C@@H](C7=CC(=O)OC7)CC[C@]65O)C4)O[C@@H]3C)O[C@@H]2C)C[C@H](O)[C@@H]1O [Digoxin]")
0.51
>>> recorded_result("COc1cc([C@@H]2c3cc4c(cc3[C@@H](O[C@@H]3O[C@@H]5CO[C@@H](C)O[C@H]5[C@H](O)[C@H]3O)[C@H]3COC(=O)[C@H]23)OCO4)cc(OC)c1O [Etoposide]")
0.12
>>> recorded_result("CCCC(=O)Nc1ccc(OCC(O)CNC(C)C)c(C(C)=O)c1 (centres unmarked) [Acebutolol]")
0.1
>>> recorded_result("COc1cccc2c1C(=O)c1c(O)c3c(c(O)c1C2=O)C[C@@](O)(C(=O)CO)C[C@@H]3O[C@H]1C[C@H](N)[C@H](O)[C@H](C)O1 [Doxorubicin]")
0.16

* * *

- Run description: in vitro
- Condition set: dog, MDCK-MDR1, pH 5
Property: recovery

>>> recorded_result("CCCC(=O)Nc1ccc(OCC(O)CNC(C)C)c(C(C)=O)c1 (stereo not shown)")
"90 to 106%"
>>> recorded_result("COc1cc2c(c(OC)c1OC)-c1ccc(OC)c(=O)cc1[C@@H](NC(C)=O)CC2")
"100 to 120%"
>>> recorded_result("C[C@H]1O[C@@H](O[C@H]2[C@@H](O)C[C@H](O[C@H]3[C@@H](O)C[C@H](O[C@H]4CC[C@@]5(C)[C@H](CC[C@@H]6[C@@H]5C[C@@H](O)[C@]5(C)[C@@H](C7=CC(=O)OC7)CC[C@]65O)C4)O[C@@H]3C)O[C@@H]2C)C[C@H](O)[C@@H]1O")
"71 to 116%"
>>> recorded_result("COc1cccc2c1C(=O)c1c(O)c3c(c(O)c1C2=O)C[C@@](O)(C(=O)CO)C[C@@H]3O[C@H]1C[C@H](N)[C@H](O)[C@H](C)O1")
"94 to 100%"
